- EXPERIMENTAL TARGET: norovirus 3CL protease (NV 3CLpro) (Norovirus, UniProt Q83883)
- Sequence (Q83883 1101-1281): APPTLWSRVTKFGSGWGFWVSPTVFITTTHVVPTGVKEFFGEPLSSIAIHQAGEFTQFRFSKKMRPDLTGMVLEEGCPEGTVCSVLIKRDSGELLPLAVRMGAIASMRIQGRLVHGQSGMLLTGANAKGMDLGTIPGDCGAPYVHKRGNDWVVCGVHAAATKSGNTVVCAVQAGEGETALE
- PROTOCOL NOTES: FRET protease assay (3CL protease), enzyme inhibition
- Type: biochemical
- MEASUREMENT CONTEXT: Table 1, ester prodrugs; average of at least two determinations; read-out: IC50 (50% inhibitory concentration in the enzyme assay)
Each entry below carries its reported IC50.

>  <COMPOUND>
CCC(=O)OC([C@H](C[C@@H]1CCNC1=O)NC(=O)[C@H](CC(C)C)NC(=O)OCc1ccccc1)S(=O)(=O)O (stereo partly shown)

>  <EXPERIMENTAL TARGET>
norovirus 3CL protease (NV 3CLpro) (Norovirus, UniProt Q83883)

>  <UNIT STRING>
µM

>  <IC50>
7.5

$$$$
>  <COMPOUND>
O=C(N[C@@H](CC1CCCCC1)C(=O)N[C@@H](C[C@@H]1CCNC1=O)C(OC(=O)C1CCCCC1)S(=O)(=O)O)OCc1cccc(Cl)c1 (stereo partly shown)

>  <EXPERIMENTAL TARGET>
norovirus 3CL protease (NV 3CLpro) (Norovirus, UniProt Q83883)

>  <UNIT STRING>
µM

>  <IC50>
0.4

$$$$
>  <COMPOUND>
CCCC(=O)OC([C@H](C[C@@H]1CCNC1=O)NC(=O)[C@H](CC(C)C)NC(=O)OCc1ccccc1)S(=O)(=O)O (stereo partly shown)

>  <EXPERIMENTAL TARGET>
norovirus 3CL protease (NV 3CLpro) (Norovirus, UniProt Q83883)

>  <UNIT STRING>
µM

>  <IC50>
3.7

$$$$
>  <COMPOUND>
CCCCC(=O)OC([C@H](C[C@@H]1CCNC1=O)NC(=O)[C@H](CC(C)C)NC(=O)OCc1ccccc1)S(=O)(=O)O (stereo partly shown)

>  <EXPERIMENTAL TARGET>
norovirus 3CL protease (NV 3CLpro) (Norovirus, UniProt Q83883)

>  <UNIT STRING>
µM

>  <IC50>
3.5

$$$$
